Listing: binding signal of selected sequences
- EXPERIMENTAL_TARGET: MBP-FoxP3dN (Mus musculus, UniProt Q99JB6 188-423)
- Sequence: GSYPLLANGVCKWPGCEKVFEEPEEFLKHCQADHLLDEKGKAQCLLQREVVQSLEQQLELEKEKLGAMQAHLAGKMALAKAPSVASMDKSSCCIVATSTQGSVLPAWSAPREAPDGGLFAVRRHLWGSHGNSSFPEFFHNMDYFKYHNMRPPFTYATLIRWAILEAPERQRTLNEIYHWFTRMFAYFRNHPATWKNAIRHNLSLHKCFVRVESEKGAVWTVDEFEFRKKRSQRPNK
- PROTOCOL_SUMMARY: PD-seq (MBP pull-down with sequencing); 20 mM Tris-HCl pH 7.5, 100 mM NaCl, 1.5 mM MgCl2, 0.4 uM protein, 0.1 uM dsDNA library, 30 min, room temperature, amylose pull-down; high values mean tight binding
- TEST_CONDITIONS: protein: recombinant; tags: His6-MBP; chain copies: 2; dsDNA, one strand shown
The full ranking holds about 16,000 sequences; the median of “rpm ratio (pull-down/input)” is about 0.5, and the highest 2% start at about 5.5. Many of the other results were omitted from the sample, so the highest values are more common in it than they were.

- SEQUENCE_RECORD: "GATGATTGTTCTCCCAGCTGATGAATTCTGATGCTCGAGTAAACAAATTTTCCTAATCTTTCTGTTCAAGCGCCATCTAC"
  binding signal: "1.09 RPM ratio (pull-down/input)"
- SEQUENCE_RECORD: "GATGATTGTTCTCCCAGCTGATGAATTGATTCAGTCGAGTAAACAAATTTTCCTAATCTTTCTGTTCAAGCGCCATCTAC"
  binding signal: "0.28 RPM ratio (pull-down/input)"
- SEQUENCE_RECORD: "GATGATTGTTCTCCCAGCTGATGAATTTTTGCCTTCGAGTAAACAAATTTTCCTAATCTTTCTGTTCAAGCGCCATCTAC"
  binding signal: "2.86 RPM ratio (pull-down/input)"
- SEQUENCE_RECORD: "GATGATTGTTCTCCCAGCTGATGAATTGATTCTCTCGAGTAAACAAATTTTCCTAATCTTTCTGTTCAAGCGCCATCTAC"
  binding signal: "0.395 RPM ratio (pull-down/input)"
- SEQUENCE_RECORD: "GATGATTGTTCTCCCAGCTGATGAATTGCGAGGGTCGAGTAAACAAATTTTCCTAATCTTTCTGTTCAAGCGCCATCTAC"
  binding signal: "0.611 RPM ratio (pull-down/input)"
- SEQUENCE_RECORD: "GATGATTGTTCTCCCAGCTGATGAATTTGGTGTCTCGAGTAAACAAATTTTCCTAATCTTTCTGTTCAAGCGCCATCTAC"
  binding signal: "3.42 RPM ratio (pull-down/input)"
- SEQUENCE_RECORD: "GATGATTGTTCTCCCAGCTGATGAATTATTCAGATCGAGTAAACAAATTTTCCTAATCTTTCTGTTCAAGCGCCATCTAC"
  binding signal: "0.24 RPM ratio (pull-down/input)"
- SEQUENCE_RECORD: "GATGATTGTTCTCCCAGCTGATGAATTCGCATGATCGAGTAAACAAATTTTCCTAATCTTTCTGTTCAAGCGCCATCTAC"
  binding signal: "0.877 RPM ratio (pull-down/input)"
- SEQUENCE_RECORD: "GATGATTGTTCTCCCAGCTGATGAATTGCTTATATCGAGTAAACAAATTTTCCTAATCTTTCTGTTCAAGCGCCATCTAC"
  binding signal: "1.61 RPM ratio (pull-down/input)"
- SEQUENCE_RECORD: "GATGATTGTTCTCCCAGCTGATGAATTCCCTGCCTCGAGTAAACAAATTTTCCTAATCTTTCTGTTCAAGCGCCATCTAC"
  binding signal: "0.312 RPM ratio (pull-down/input)"
- SEQUENCE_RECORD: "GATGATTGTTCTCCCAGCTGATGAATTGTGTCCCTCGAGTAAACAAATTTTCCTAATCTTTCTGTTCAAGCGCCATCTAC"
  binding signal: "2.1 RPM ratio (pull-down/input)"
- SEQUENCE_RECORD: "GATGATTGTTCTCCCAGCTGATGAATTTCGGGCCTCGAGTAAACAAATTTTCCTAATCTTTCTGTTCAAGCGCCATCTAC"
  binding signal: "0.404 RPM ratio (pull-down/input)"
- SEQUENCE_RECORD: "GATGATTGTTCTCCCAGCTGATGAATTATCCCGGTCGAGTAAACAAATTTTCCTAATCTTTCTGTTCAAGCGCCATCTAC"
  binding signal: "0.208 RPM ratio (pull-down/input)"
- SEQUENCE_RECORD: "GATGATTGTTCTCCCAGCTGATGAATTACACCTCTCGAGTAAACAAATTTTCCTAATCTTTCTGTTCAAGCGCCATCTAC"
  binding signal: "0.705 RPM ratio (pull-down/input)"
- SEQUENCE_RECORD: "GATGATTGTTCTCCCAGCTGATGAATTTTGACCATCGAGTAAACAAATTTTCCTAATCTTTCTGTTCAAGCGCCATCTAC"
  binding signal: "0.551 RPM ratio (pull-down/input)"

The origin of these recorded values is paper PMC12820563.
